// provenance: PubChem BioAssay (Tox21)

test: qHTS assay to identify small molecule antagonists of the estrogen receptor alpha (ER-alpha) signaling pathway using the BG1 cell line (AID 743080); conditions: BG1Luc4E2 ERE-luciferase antagonist mode, luminescence; series mostly up to 70.3 µM;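 note: BG1 cells stimulated with 17beta-estradiol alongside compound; % is set by controls: 0 for no effect and ±100 for the full control effect; nearly all actives have a fitted effect of over 25% in size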
Records with an inconclusive call do not appear. The source made the active and inactive calls. Calls come from the whole dose curve. Positions of bridges follow the written chain, without caps; N, C: chain ends. Non-standard residues stand in square brackets, D forms with d. Residues, ends and D or L forms follow the SMILES beside them. pGlu = O=C1CC[C@@H](C(=O)O)N1; Orn = NCCC[C@H](N)C(=O)O; Thz = O=C(O)[C@@H]1CSCN1; Mpa = O=C(O)CCS
reported.property: outcome

* CCOc1ccc(C[C@H]2NC(=O)CCSSC[C@@H](C(=O)N3CCC[C@H]3C(=O)N[C@@H](CCCN)C(=O)NCC(N)=O)NC(=O)[C@H](CC(N)=O)NC(=O)[C@H]([C@@H](C)O)NC(=O)[C@H]([C@@H](C)CC)NC2=O)cc1 ([Mpa][dY](Et)ITNCP[Orn]G-NH2; disulfide 1-6) | inactive
* O=C1CC[C@@H](C(=O)N2CSC[C@H]2C(=O)O)N1 ([pGlu]-[Thz]-OH) | inactive
* CCCCCCCCCCCCCCCC(=O)O[C@@H]1CC(C)=C(/C=C/C(C)=C/C=C/C(C)=C/C=C/C=C(C)/C=C/C=C(C)/C=C/C2=C(C)C[C@@H](OC(=O)CCCCCCCCCCCCCCC)CC2(C)C)C(C)(C)C1 | inactive

---

assay: qHTS assay for identifying genotoxic compounds that show differential cytotoxicity against isogenic chicken DT40 cell lines with known DNA damage response pathways - Rad54/Ku70 mutant cell line (AID 743015); conditions: DT40 Rad54/Ku70 mutant viability, CellTiter-Glo, 40 h; series mostly up to 66.8 µM; note: nearly all actives have a fitted effect of over 60% in size
Inconclusive results are not listed. Active and inactive are the calls of the source. Calls come from the whole dose curve; as a rule, active = well fitted cell-killing curve with a large enough effect in the repeat runs; inconclusive = weak or mixed curves; inactive = no such curve, though single readings can be large or run the other way.
Write down the outcome that applies. Available outcomes: 1.0 (active), 0.0 (inactive)

Solved entries (count: 2):
• CCCC(=O)Nc1c(I)cc(I)c(CC(CC)C(=O)O)c1I (centres undefined) = 0.0
• CCCCC/C=C\CCC(=O)N[C@H]1[C@H](Oc2c3cc4cc2Oc2ccc(cc2Cl)[C@@H](O[C@@H]2O[C@H](CO)[C@@H](O)[C@H](O)[C@H]2NC(C)=O)[C@@H]2NC(=O)[C@H](NC(=O)[C@@H]4NC(=O)[C@H]4NC(=O)[C@@H](Cc5ccc(c(Cl)c5)O3)NC(=O)[C@H](N)c3ccc(O)c(c3)Oc3cc(O)cc4c3)c3ccc(O)c(c3)-c3c(O[C@H]4O[C@H](CO)[C@@H](O)[C@H](O)[C@@H]4O)cc(O)cc3[C@@H](C(=O)O)NC2=O)O[C@H](CO)[C@@H](O)[C@@H]1O = 0.0

Q: How was OCCO[C@@H]1[C@@H](O)[C@H](O)[C@@H](CO)O[C@@H]1O classified in this test?
Result: 0.0

Q: How was COC(=O)C1=C(C#N)NC(C)=C(C(=O)OC(C)C)C1c1cccc([N+](=O)[O-])c1 (centres undefined) classified in this test?
Result: 1.0

Q: How was COc1ccc(CC2c3cc(OC)c(OC)cc3CC[N+]2(C)CCC(=O)OCCCCCOC(=O)CC[N+]2(C)CCc3cc(OC)c(OC)cc3C2Cc2ccc(OC)c(OC)c2)cc1OC (centres undefined) classified in this test?
Result: 0.0

Q: How was C[C@@H]1C[C@H]2[C@@H]3CCC4=CC(=O)C=C[C@]4(C)[C@@]3(F)[C@@H](O)C[C@]2(C)[C@@]1(O)C(=O)COC(=O)c1cccc(S(=O)(=O)O)c1 classified in this test?
Result: 0.0

Q: How was CCOC(=O)c1c[nH]c2cc(OCC(C)C)c(OCC(C)C)cc2c1=O classified in this test?
Result: 0.0

Q: How was C=CC1=C(C)C2=CC3=NC(=C(CC(=O)[O-])C4=NC(=C(C)C4=C([O-])[O-])C=c4[n-]c(c(C)c4CC)=CC1=N2)C(CCC(=O)[O-])C3C.[Cu+2].[Na+].[Na+].[Na+] (centres undefined) classified in this test?
Result: 1.0

Q: How was C#CCC(Cc1cnc2nc(N)nc(N)c2n1)c1ccc(C(=O)N[C@@H](CCC(=O)O)C(=O)O)cc1 (some centres undefined) classified in this test?
Result: 1.0

Q: How was C[N+]1(C)CCN(CC(O)(c2ccccc2)C2CCCCC2)CC1 (centres undefined) classified in this test?
Result: 0.0

Q: How was CC[C@@H](C(=O)[C@@H](C)[C@@H](O)[C@H](C)[C@@H]1O[C@@H]([C@@H](CC)C(=O)O)CC[C@@H]1C)[C@H]1O[C@]2(C=C[C@@H](O)[C@]3(CC[C@@](C)([C@H]4CC[C@](O)(CC)[C@H](C)O4)O3)O2)[C@H](C)C[C@@H]1C classified in this test?
Result: 1.0

Q: How was O=C(Cc1cccs1)N[C@@H]1C(=O)N2C(C(=O)[O-])=C(C[n+]3ccccc3)CS[C@H]12 classified in this test?
Result: 0.0

---

experiment: qHTS assay for small molecule disruptors of the mitochondrial membrane potential - cell viability (AID 720634); conditions: HepG2 viability, ATP luminescence (CellTiter-Glo), 1 h; series mostly up to 83.2 µM; note: nearly all actives have a fitted effect of over 20% in size
Records with an inconclusive call do not appear. Calls of active or inactive are those of the source. Calls come from the whole dose curve.
Write down the outcome that applies. Available outcomes: active, inactive

• O=C(Nc1ccc(Br)cc1)c1cc(Br)c(Br)s1 = active

Q: How was CO[C@H]1C[C@@H]2CC[C@@H](C)[C@@](O)(O2)C(=O)C(=O)N2CCCC[C@H]2C(=O)O[C@H]([C@H](C)C[C@@H]2CC[C@@H](OCCO)[C@H](OC)C2)CC(=O)[C@H](C)/C=C(\C)[C@@H](O)[C@@H](OC)C(=O)[C@H](C)C[C@H](C)/C=C/C=C/C=C/1C classified in this test?
Result: inactive

Q: How was CCCCCC(O)/C=C/C=O (stereo unspecified) classified in this test?
Result: inactive

Q: How was CCC(=O)Oc1ccc2c(c1)CC[C@@H]1[C@@H]2CC[C@]2(C)[C@@H](OC(=O)CC)CC[C@@H]12 classified in this test?
Result: inactive

Q: How was C/C(=C(\CCOC(=O)c1ccccc1)SS/C(CCOC(=O)c1ccccc1)=C(/C)N(C=O)Cc1cnc(C)nc1N)N(C=O)Cc1cnc(C)nc1N classified in this test?
Result: inactive

Q: How was CN1CCC(CN2c3ccccc3Sc3ccccc32)C1 (stereo unspecified) classified in this test?
Result: inactive

Q: How was O.O=C([O-])CC([S-])C(=O)[O-].[Au+].[Na+].[Na+] (stereo unspecified) classified in this test?
Result: inactive

Q: How was CC(=O)Nc1c(I)c(C(=O)O)c(I)c(N(C)C(C)=O)c1I classified in this test?
Result: inactive

Q: How was COc1c(O[C@@H]2O[C@H](CO)[C@@H](O)[C@H](O)[C@H]2O)cc2c(c1OC)-c1ccc(SC)c(=O)cc1[C@@H](NC(C)=O)CC2 classified in this test?
Result: inactive

Q: How was CS(=O)(=O)OCC(O)C(O)COS(C)(=O)=O (stereo unspecified) classified in this test?
Result: inactive

Q: How was NNc1nnc(Cc2ccncc2)c2ccccc12 classified in this test?
Result: inactive

Q: How was CC(=O)O[C@H]1CC[C@@]2(C)C(=CC[C@@H]3[C@@H]2CC[C@]2(C)C(c4cccnc4)=CC[C@@H]32)C1 classified in this test?
Result: inactive

---

molecular target: Androgen receptor (Homo sapiens); experiment: qHTS assay to identify small molecule antagonists of the androgen receptor (AR) signaling pathway (AID 743035); settings: HEK293 AR-UAS-bla, R1881-stimulated, beta-lactamase FRET, 16 h; series mostly up to 58.5 µM
Results filed as inconclusive are left out. Active and inactive are the calls of the source. Calls come from the whole dose curve; as a rule, active = well fitted inhibition curve with a large enough effect in the signal ratio in the repeat runs (not every such curve was filed as active); inconclusive = weak or mixed curves, or effect the other way; inactive = no such curve, though single readings can be large or run the other way; the % refers to the signal ratio.
Write down the outcome that applies. Available outcomes: label 1 for active, label 0 for inactive

Solved entries (count: 4):
• CO[C@H]1C[C@H](O[C@H]2[C@H](C)[C@@H](O[C@@H]3O[C@H](C)C[C@H](N(C)C)[C@H]3OC(C)=O)[C@@H](C)C[C@]3(CO3)C(=O)[C@H](C)[C@@H](OC(C)=O)[C@@H](C)[C@@H](C)OC(=O)[C@@H]2C)O[C@@H](C)[C@@H]1OC(C)=O = label 0
• CO/N=C(\C(=O)N[C@@H]1C(=O)N2C(C(=O)O)=C(CSC(=O)c3ccco3)CS[C@H]12)c1csc(N)n1 = label 0
• Cc1cc(O)c2c(c1)O[C@@]1(C)CC[C@H]3C(C)(C)CCCC34CO[C@@H]2[C@H]41 (stereo not given in full) = label 1
• Nc1c(Br)cc(Br)cc1CNC1CCC(O)CC1 (stereo not given) = label 0

Proceed to the following item.
Q: How was CC1(C)S[C@@H]2[C@H](NC(=O)[C@H](NC(=O)N3CCN(S(C)(=O)=O)C3=O)c3ccccc3)C(=O)N2[C@H]1C(=O)O classified in this test?
Result: label 0
